biological target: KPC-2 (Klebsiella pneumoniae, UniProt Q9F663); construct: purified recombinant; class A serine beta-lactamase; construct details only in ESI; assay: inhibition of purified recombinant enzyme; assay type: biochemical; conditions: read-out: Class A KPC-2
Sequence (Q9F663 25-293 limits assumed): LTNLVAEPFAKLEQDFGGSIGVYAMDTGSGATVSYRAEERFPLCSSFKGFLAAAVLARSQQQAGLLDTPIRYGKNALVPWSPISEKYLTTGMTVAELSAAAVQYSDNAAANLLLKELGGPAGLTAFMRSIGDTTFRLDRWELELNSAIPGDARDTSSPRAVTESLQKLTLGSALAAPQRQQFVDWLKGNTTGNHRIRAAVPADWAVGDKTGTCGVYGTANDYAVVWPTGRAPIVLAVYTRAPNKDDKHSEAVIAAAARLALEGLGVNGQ
pIC50: −log10 of the molar value.
Tick 1 if pIC50 is 6 or greater. Tick -1 if pIC50 is less than 6.

- C=C(C(=O)O)[C@@H]1OB(O)c2ccc(OC)cc21 [(R)-4c]: -1
- C=C(C(=O)O)[C@@H]1OB(O)c2cc(Oc3ccc(OC)cc3)ccc21 [(R)-4q]: 1
- C=C(C(=O)O)[C@@H]1OB(O)c2ccc(F)cc21 [(R)-4f]: -1
- C=C(C(=O)O)[C@H]1OB(O)c2ccc(OC)cc21 [(S)-4c]: 1
- C=C(C(=O)O)[C@H]1OB(O)c2cc(F)ccc21 [(S)-4j]: 1
- C=C(C(=O)O)[C@H]1OB(O)c2cc(Oc3ccc(OC)cc3)ccc21 [(S)-4q]: 1
- C=C(C(=O)O)[C@@H]1OB(O)c2ccccc21 [(R)-4a]: -1
- C=C(C(=O)O)[C@H]1OB(O)c2ccc(F)cc21 [(S)-4f]: 1
- C=C(C(=O)O)[C@H]1OB(O)c2ccccc21 [(S)-4a]: 1

* * *

Quick list: pIC50 per entry.
target: Class B1 NDM-1 (Klebsiella pneumoniae); construct: gene blaNDM-1; experiment: biochemical; parameters: inhibition of purified recombinant beta-lactamases, IC50
Sequence (C7C422 whole entry, looked up): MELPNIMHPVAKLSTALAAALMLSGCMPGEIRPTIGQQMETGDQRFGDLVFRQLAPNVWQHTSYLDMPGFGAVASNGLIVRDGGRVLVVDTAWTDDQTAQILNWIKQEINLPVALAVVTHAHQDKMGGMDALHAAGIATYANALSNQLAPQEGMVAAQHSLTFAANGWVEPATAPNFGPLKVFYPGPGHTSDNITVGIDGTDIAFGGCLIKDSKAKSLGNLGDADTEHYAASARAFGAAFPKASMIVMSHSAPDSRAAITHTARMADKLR
pIC50: −log10 of the molar value.
measuredQuantity: pIC50

* C=C(C(=O)O)[C@@H]1OB(O)c2ccc(Oc3ccc(C)cc3)cc21 [(R)-4m] | 3.45
* C=C(C(=O)O)[C@@H]1OB(O)c2ccc(Oc3cccc(C)c3)cc21 [(R)-4n] | 3.96
* C=C(C(=O)O)[C@@H]1OB(O)c2cc(OCc3ccccc3)ccc21 [(R)-4t] | 3.42
* C=C(C(=O)O)[C@@H]1OB(O)c2cc(Oc3ccc(Cl)cc3)ccc21 [(R)-4s] | 3.83
* C=C(C(=O)O)[C@@H]1OB(O)c2cc(Oc3ccc([N+](=O)[O-])cc3)ccc21 [(R)-4r] | 3.51

* * *

molecular target: KPC-2 (Klebsiella pneumoniae); construct: purified recombinant; class A serine beta-lactamase; construct details only in ESI; assay: biochemical; design: inhibition of purified recombinant beta-lactamases, IC50; conditions: read-out: Class A KPC-2
Quick list: IC50 per entry.
measuredQuantity: IC50 (nM)

• C=C(C(=O)O)[C@@H]1OB(O)c2cc(Oc3ccc(Cl)cc3)ccc21 [(R)-4s] = 270
• C=C(C(=O)O)[C@@H]1OB(O)c2cc(OCc3ccccc3)ccc21 [(R)-4t] = 550
• C=C(C(=O)O)[C@@H]1OB(O)c2ccc(Oc3cccc(C)c3)cc21 [(R)-4n] = 2110
• C=C(C(=O)O)[C@@H]1OB(O)c2ccc(Oc3ccc(C(F)(F)F)cc3)cc21 [(R)-4o] = 3760
• C=C(C(=O)O)[C@@H]1OB(O)c2ccc(OCc3ccccc3)cc21 [(R)-4p] = 1170
• C=C(C(=O)O)[C@@H]1OB(O)c2ccc(Oc3ccc(C)cc3)cc21 [(R)-4m] = 3580
• C=C(C(=O)O)[C@@H]1OB(O)c2cc(Oc3ccc([N+](=O)[O-])cc3)ccc21 [(R)-4r] = 120
